measured-parameter: melting point

1) COCC(=O)NCC(=O)N1CC1C#N (stereo not given): 70 to 72 °C
2) C#CCON=C(C(=O)O)c1nc(NC(=O)C(F)(F)F)sc1Cl: 178 to 180 °C

Incoming: Fill in: melting point of NCC1CCc2[nH]c3cc(Cl)c(F)cc3c2C1 (stereo not given) is ___
Outgoing: 180 to 181 °C

Incoming: Fill in: melting point of CCCOc1c(OCc2ccccc2)cc([C@H]2CC[C@H](c3cc(OC)c(OC)c(OC)c3)O2)cc1S(=O)(=O)CCO (relative stereo) is ___
Outgoing: 112 to 113 °C

Incoming: Fill in: melting point of COC(CNC(=O)c1ccc(N2CCN(C(=O)c3ccccc3C(F)(F)F)CC2)nn1)C(C)(C)C (stereo not given) is ___
Outgoing: 65 to 68 °C

Data origin, for the record: a melting point compilation (Tetko et al.; mined from patent text by program, amines drawn as free bases though some values may be those of a salt)
